assay: Cell Viability - LYMP2-008 (AID 980); settings: LYMP2-008 lymphoblastoid cell viability, qHTS; series mostly up to 92.2 µM; further: nearly all actives have a fitted effect of over 60% in size
Inconclusive results are not listed. The source made the active and inactive calls. The call rests on the fitted dose curve; in most records, active means well fitted cell-killing curve with a large enough effect; inconclusive means small, poorly fitted or top-dose-only effect; inactive means flat fitted curve, though single readings scatter.
Classes used: class 1 (active), class 0 (inactive)

STRUCTURE_SMILES_STRING	ASSIGNED_CATEGORY
CC[n+]1c(-c2ccccc2)c2cc(N)ccc2c2ccc(N)cc21	class 1
CCCCCCCCCCCC[N+](C)(C)CCOc1ccccc1	class 1
COP(=O)(OC)OC=C(Cl)Cl	class 0
O=C(CCl)c1ccc(Cl)cc1Cl	class 1

---

details: Ebola virus entry assay, ratio channel
The source made the active and inactive calls. No rule for the calls is given here.

MOLECULE	AC50
CCCCC1C(=O)N(c2ccccc2)N(c2ccc(O)cc2)C1=O (stereo unspecified)	inactive
CCCC(=O)OC[C@@H](OC(=O)CCC)[C@@H](OC(=O)CCC)[C@H](Cn1c2nc(=O)[nH]c(=O)c-2nc2cc(C)c(C)cc21)OC(=O)CCC	inactive
CC(CNC1CCCCC1)OC(=O)c1ccccc1 (stereo unspecified)	8.91 µM (active)
COc1cc2[nH]c(=O)[nH]c(=O)c2cc1OC	inactive
C=CCc1cc(OC)c(O)c(C(=O)NCCO)c1	22.4 µM (active)
Cc1ccc(O)cc1	inactive

# credit: PubChem BioAssay (NCATS)
